Experiment: Cmax in Wistar Han rat at 2 mg/kg, po or 1 mg/kg, iv
Format: ADME, organism-based
Parameters: dose 2 mg/kg
Settings: in vivo
value kind: Cmax (nM)
// return numeric value only (unit: nM, not printed)

Q: Using the record for `CC1=C(N2CCC3(CCN(C[C@H](O)c4ccc5c(c4C)COC5=O)CC3)C2=O)COC1=O` , report its Cmax.
A: 310

---

Test: AUC (0 to infinity) in Wistar Han rat at 2 mg/kg, po or 1 mg/kg, iv
Type: ADME, organism-based
Set-up: dose 2 mg/kg
Details: in vivo
value kind: AUC(0-inf) (µM·h)
Give a bare numeral; the unit µM·h is implied.

Q: Recorded AUC(0-inf) for `CC1=C(N2CCC3(CCN(C[C@H](O)c4ccc5c(c4C)COC5=O)CC3)C2=O)COC1=O` , please?
A: 1.4

---

Assay: Oral bioavailability in rhesus monkey at 2 mg/kg
Assay type: ADME, organism-based, Macaca mulatta
Conditions: in vivo
value kind: bioavailability (%)
Field: numeric (%). Do not append units.

Q: Suppose we examine the molecule `CC1=C(N2CCC3(CCN(C[C@H](O)c4ccc5c(c4C)COC5=O)CC3)C2=O)COC1=O` ; what bioavailability value has been reported?
A: 3.4

---

Assay: Effective half life in Wistar Han rat at 2 mg/kg, po or 1 mg/kg, iv
Assay type: ADME, organism-based
Conditions: in vivo, read-out: t1/2eff (converted)
value kind: half-life (h)
Quick note: give the figure in h, leave out the unit.

Q: Give its half-life value. Item: `CC1=C(N2CCC3(CCN(C[C@H](O)c4ccc5c(c4C)COC5=O)CC3)C2=O)COC1=O`
A: 1.8

---

Experiment: Tmax in rhesus monkey at 2 mg/kg, po or 1 mg/kg, iv
Type: ADME, organism-based, Macaca mulatta
Details: in vivo
value kind: Tmax (min)
Provide the reading as a plain figure in min.

Q: Fill in the blank: the reported Tmax of `CC1=C(N2CCC3(CCN(C[C@H](O)c4ccc5c(c4C)COC5=O)CC3)C2=O)COC1=O` is ____.
A: 30

---

Target: Sodium channel protein type 5 subunit alpha (Homo sapiens)
Sequence (Q14524 whole entry): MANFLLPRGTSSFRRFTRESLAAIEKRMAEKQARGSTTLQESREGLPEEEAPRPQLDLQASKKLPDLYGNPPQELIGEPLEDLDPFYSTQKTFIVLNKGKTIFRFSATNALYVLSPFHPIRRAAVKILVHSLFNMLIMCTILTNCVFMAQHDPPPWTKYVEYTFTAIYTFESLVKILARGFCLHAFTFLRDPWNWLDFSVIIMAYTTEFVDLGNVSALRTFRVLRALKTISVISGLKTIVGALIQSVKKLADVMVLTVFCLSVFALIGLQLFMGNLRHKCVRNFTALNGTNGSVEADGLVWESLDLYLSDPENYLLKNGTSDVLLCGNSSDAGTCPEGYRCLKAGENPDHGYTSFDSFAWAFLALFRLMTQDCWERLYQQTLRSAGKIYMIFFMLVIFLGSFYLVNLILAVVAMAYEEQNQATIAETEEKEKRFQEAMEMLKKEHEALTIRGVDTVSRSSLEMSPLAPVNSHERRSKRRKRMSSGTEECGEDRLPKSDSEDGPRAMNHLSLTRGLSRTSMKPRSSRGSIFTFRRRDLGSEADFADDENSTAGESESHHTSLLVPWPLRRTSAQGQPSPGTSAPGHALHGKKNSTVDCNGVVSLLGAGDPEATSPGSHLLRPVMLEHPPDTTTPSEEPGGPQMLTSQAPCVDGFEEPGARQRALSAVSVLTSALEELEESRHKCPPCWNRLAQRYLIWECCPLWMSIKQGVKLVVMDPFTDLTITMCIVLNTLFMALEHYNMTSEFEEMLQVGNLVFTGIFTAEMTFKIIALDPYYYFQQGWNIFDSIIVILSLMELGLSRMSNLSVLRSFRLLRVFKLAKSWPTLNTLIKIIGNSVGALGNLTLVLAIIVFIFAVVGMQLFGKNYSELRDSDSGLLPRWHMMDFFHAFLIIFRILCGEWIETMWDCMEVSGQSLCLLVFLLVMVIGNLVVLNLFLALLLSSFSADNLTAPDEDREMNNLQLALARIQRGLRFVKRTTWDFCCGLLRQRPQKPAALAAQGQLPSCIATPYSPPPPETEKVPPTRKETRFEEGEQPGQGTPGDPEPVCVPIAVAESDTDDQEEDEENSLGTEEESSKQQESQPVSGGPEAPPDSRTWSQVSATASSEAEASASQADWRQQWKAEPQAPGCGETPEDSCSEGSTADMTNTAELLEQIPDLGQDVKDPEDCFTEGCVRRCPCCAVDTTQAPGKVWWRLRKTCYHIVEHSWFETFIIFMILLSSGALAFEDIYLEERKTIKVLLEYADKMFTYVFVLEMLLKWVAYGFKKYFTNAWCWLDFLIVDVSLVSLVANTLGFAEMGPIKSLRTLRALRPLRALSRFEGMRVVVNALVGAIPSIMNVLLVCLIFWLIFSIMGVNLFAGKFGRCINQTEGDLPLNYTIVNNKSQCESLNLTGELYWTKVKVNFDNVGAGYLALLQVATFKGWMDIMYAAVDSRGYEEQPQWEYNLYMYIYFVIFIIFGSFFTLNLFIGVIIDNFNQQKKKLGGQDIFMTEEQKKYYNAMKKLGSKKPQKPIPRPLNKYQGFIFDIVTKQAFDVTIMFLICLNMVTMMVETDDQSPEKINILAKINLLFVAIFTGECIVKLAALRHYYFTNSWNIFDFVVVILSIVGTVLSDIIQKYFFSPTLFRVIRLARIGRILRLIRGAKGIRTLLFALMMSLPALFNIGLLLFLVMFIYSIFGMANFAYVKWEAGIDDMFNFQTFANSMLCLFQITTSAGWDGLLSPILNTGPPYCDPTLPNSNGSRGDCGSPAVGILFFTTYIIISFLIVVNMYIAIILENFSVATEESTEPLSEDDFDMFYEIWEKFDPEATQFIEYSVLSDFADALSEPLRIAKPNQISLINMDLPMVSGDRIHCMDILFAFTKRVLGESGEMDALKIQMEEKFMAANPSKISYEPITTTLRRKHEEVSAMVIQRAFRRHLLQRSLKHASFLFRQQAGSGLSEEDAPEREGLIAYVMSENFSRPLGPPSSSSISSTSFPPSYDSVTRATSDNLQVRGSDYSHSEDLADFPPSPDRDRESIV
Assay: Inhibition of Nav1.5 (unknown origin)
pIC50: −log10 of the molar value.
value kind: pIC50

Q: // map `CC1=C(N2CCC3(CCN(C[C@H](O)c4ccc5c(c4C)COC5=O)CC3)C2=O)COC1=O` to recorded pIC50 (system: Sodium channel protein type 5 subunit alpha (Homo sapiens))
A: < 4.52

---

Assay: Apparent permeability in pig LLC-PK1 cells
value kind: Papp
Answer as a quantity: numeral, then unit.

compound	Papp
Cc1c([C@@H](O)CN2CCC3(CC2)CCN(C2=CC(=O)OC2)C3=O)ccc2c1COC2=O	11 ×10⁻⁶ cm/s
CCC1=C(N2CCC3(CCN(C[C@H](O)c4ccc5c(c4C)COC5=O)CC3)C2=O)COC1=O	23 ×10⁻⁶ cm/s
CC1=C(N2CCC3(CCN(C[C@H](O)c4ccc5c(c4C)COC5=O)CC3)C2=O)COC1=O	21 ×10⁻⁶ cm/s
Cc1c([C@@H](O)CN2CCC3(CC2)CCN(C2=CC(=O)OC2C)C3=O)ccc2c1COC2=O (stereo not given in full)	19 ×10⁻⁶ cm/s

We now examine a further compound.
Q: Need Papp of `CC1=C(N2CCC3(CCN(C[C@H](O)c4ccc5c(c4C)COC5=O)CC3)C2=O)CCC1=O` , thanks.
A: 22 ×10⁻⁶ cm/s

---

Assay: Effective half life in rhesus monkey at 2 mg/kg, po or 1 mg/kg, iv
Format: ADME, organism-based, Macaca mulatta
Conditions: in vivo, read-out: t1/2eff (converted)
value kind: half-life (h)
Give the value in h but do not write h after it.

Q: Fill blank: measured half-life of the compound `CC1=C(N2CCC3(CCN(C[C@H](O)c4ccc5c(c4C)COC5=O)CC3)C2=O)COC1=O` is ____.
A: 1.8
